experiment: Selectivity index, ratio of CC50 for human HeLa cells to MIC for active stage of Mycobacterium bovis BCG ATCC 35734; assay type: toxicity, cell-based; settings: read-out: Selectivity Index
We begin with a simple list: items and their reported selectivity ratio.
recorded.endpoint: selectivity ratio

Cc1nc(-c2cccnc2)sc1-c1nnc(-c2ccc(Cl)cc2)o1    3
Cc1nc(-c2cccnc2)sc1-c1nnc(-c2ccccc2[N+](=O)[O-])o1    39
Cc1nc(-c2cccnc2)sc1-c1nnc(-c2ccncc2)o1    2
CO[C@H]1/C=C/O[C@@]2(C)Oc3c(C)c(O)c4c(O)c(c(/C=N/N5CCN(C)CC5)c(O)c4c3C2=O)NC(=O)/C(C)=C\C=C\[C@H](C)[C@H](O)[C@@H](C)[C@@H](O)[C@@H](C)[C@H](OC(C)=O)[C@@H]1C [RIFAMPIN]    1250
Cc1nc(-c2cccnc2)sc1-c1nnc(-c2ccccc2)o1    3
